Test: Cell Viability - LYMP2-010 (AID 981);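 also: cells exposed to compound for 24 hours at 37 °C; nearly all actives have a fitted effect of over 55% in size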
Settings: LYMP2-010 lymphoblastoid cell viability, qHTS; series mostly up to 92.2 µM
Records with an inconclusive call do not appear. Activity calls are given as the source filed them. Calls follow the shape of the dose curve; as a rule, active = well fitted cell-killing curve with a large enough effect; inconclusive = small, poorly fitted or top-dose-only effect; inactive = flat fitted curve, though single readings scatter.
Pick one: active, inactive

Assay result, entry O=C1OC2(c3cc(Br)c(O)c(Br)c3Oc3c2cc(Br)c(O)c3Br)c2c(Cl)c(Cl)c(Cl)c(Cl)c21 — outcome?
inactive

Then what about the compound CN1[C@H]2CC(OC(=O)[C@H](CO)c3ccccc3)C[C@H]1[C@H]1O[C@H]12 (stereo partly specified) ?
inactive

Then what about the compound Nc1ccc2cc3ccccc3cc2c1 ?
inactive

Then what about the compound CC(=O)Nc1ccc(C(=O)CCl)cc1 ?
active

Then what about the compound CN(C)c1ccc(C2(c3ccc(N(C)C)cc3)OC(=O)c3cc(N(C)C)ccc32)cc1 ?
inactive

Then what about the compound CCCCCCCC[N+](CCCCCCCC)(CCCCCCCC)CCCCCCCC ?
active
